Origin of measurements: patent US20120045438A1

Consider the following binders and their measured % of Lc16Hc7 readings.
assay.system: T1, human IL-13 R130Q variant (R110Q of the mature chain) (human, UniProt P35225 35-146, Biotinylated on amines (NHS-LC-biotin, 4:1) in ELISA, panning and competition assays. The letters are unchanged.)
T1 construct: R130Q counts from Met 1 of the signal peptide, R110Q on the mature chain; Bought from Peprotech; also called IL-13 R110Q; b-R130Q
T1 sequence (P35225 35-146 limits assumed, stated change not applied): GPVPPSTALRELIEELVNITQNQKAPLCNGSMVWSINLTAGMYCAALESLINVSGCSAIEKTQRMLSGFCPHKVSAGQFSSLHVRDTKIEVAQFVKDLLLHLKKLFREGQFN
assay.info: single-point (10 nM) phage Fab ELISA on biotinylated IL-13 R130Q
measurement.type: % of Lc16Hc7 (%)

binder	value.measured
Phage # 70 Fab (IL-13-142 library) (Fab, V domains shown, Fab on phage pIX) VH: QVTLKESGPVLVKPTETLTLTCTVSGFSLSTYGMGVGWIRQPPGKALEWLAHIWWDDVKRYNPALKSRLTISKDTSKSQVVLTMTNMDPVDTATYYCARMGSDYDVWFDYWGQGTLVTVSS VL: DIQMTQSPSTLSASVGDRVTITCRASKSISKYLAWYQQKPGKAPKLLIYSGSTLQSGVPSRFSGSGSGTEFTLTISSLQPDDFATYYCQQHSWGPYTFGGGTKVEIK	308
Phage # 15 Fab (IL-13-142 library) (Fab, V domains shown, Fab on phage pIX) VH: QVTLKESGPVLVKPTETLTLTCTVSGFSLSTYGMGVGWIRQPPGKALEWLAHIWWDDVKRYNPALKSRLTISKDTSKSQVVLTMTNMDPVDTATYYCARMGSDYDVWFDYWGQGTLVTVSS VL: DIQMTQSPSTLSASVGDRVTITCRASKSISKYLAWYQQKPGKAPKLLIYSGSTLQSGVPSRFSGSGSGTEFTLTISSLQPDDFATYYCQQPLDAPYTFGGGTKVEIK	154
Phage # 74 Fab (IL-13-142 library) (Fab, V domains shown, Fab on phage pIX) VH: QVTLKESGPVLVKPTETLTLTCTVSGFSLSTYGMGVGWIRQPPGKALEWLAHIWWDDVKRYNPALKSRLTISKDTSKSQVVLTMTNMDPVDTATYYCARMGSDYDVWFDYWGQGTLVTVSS VL: DIQMTQSPSTLSASVGDRVTITCRASKSISKYLAWYQQKPGKAPKLLIYSGSTLQSGVPSRFSGSGSGTEFTLTISSLQPDDFATYYCQQQDMGPYTFGGGTKVEIK	301
